These measurements were taken from paper PMC7820887.

Consider the following binders and their measured koff readings.
- Target system: T1, soluble extracellular domain of human IL-5 receptor alpha subunit (sIL-5Rα) (human, UniProt Q01344)
- T1 construct: human IL-5 receptor alpha subunit (IL-5Rα, CD125), extracellular domain, residues 21–333; subcloned from a cDNA of residues 1–420; Expressed from the pSecTag2A vector; migrates at ~50 kDa (glycosylated); A biotinylated form (BirA) was used only for library screening; also called sIL-5α; CD125; source: HEK293F, transiently transfected, purified (Ni-NTA); not shown: Avi, C-terminal, kept; His6, …
- T1 sequence (Q01344 21-333): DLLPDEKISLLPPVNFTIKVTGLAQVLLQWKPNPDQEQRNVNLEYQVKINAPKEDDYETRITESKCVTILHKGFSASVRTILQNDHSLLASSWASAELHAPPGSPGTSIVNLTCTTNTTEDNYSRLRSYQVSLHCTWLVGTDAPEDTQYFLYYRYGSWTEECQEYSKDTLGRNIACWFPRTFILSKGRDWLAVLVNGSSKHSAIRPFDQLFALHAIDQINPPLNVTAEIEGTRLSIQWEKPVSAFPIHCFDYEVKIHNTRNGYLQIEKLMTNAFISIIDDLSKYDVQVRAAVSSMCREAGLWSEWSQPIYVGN
- Assay: BLI; Octet QKe, 30°C, 1× kinetics buffer in PBS pH 7.4; Ab immobilised on anti-human IgG Fc capture (AHC) biosensors, sIL-5Rα as analyte; association 300 s, dissociation 600 s; 1:1 binding model
- Assay conditions: both partners purified
Numeric answer only, unit s⁻¹ assumed.

Some solved entries appear below for comparison.
Could you tell me which koff is on file for 5R65.39 (antibody, V domains shown, as the VH of m6 (5R65) with mutations in VH-CDR3 (Kabat residues 95–100d were randomised); no mutations in VL-CDR3; Human IgG1, kappa; selected as scFab by yeast display from the 5R65 CDR3 library under kinetic screening; source: HEK293F, purified (Protein A)) VH: QVQLVQSGAEVKKPGSSVKVSCKASGYTFTSYWINWVRQAPGQGLEWIGHIYPNKNENYYNHKFKDKATLTVDKSTNTAYMELSSLRSEDTAVYYCTREFYGRSRYSAMDYWGQGTTLTVSS VL: DIQMTQSPSTLSASVGDRVTITCKASQNVGTAVAWYQQKPGKAPKLLIYWASTRHTGVPDRFSGSGSGTDFTLTISSLQPDDFATYYCQQFGRYPYTFGSGTKVEVK ?
0.000171

Could you tell me which koff is on file for 5R65.18 (antibody, V domains shown, as the VH of m6 (5R65) with mutations in VH-CDR3 (Kabat residues 95–100d were randomised); no mutations in VL-CDR3; Human IgG1, kappa; selected as scFab by yeast display from the 5R65 CDR3 library under kinetic screening; source: HEK293F, purified (Protein A)) VH: QVQLVQSGAEVKKPGSSVKVSCKASGYTFTSYWINWVRQAPGQGLEWIGHIYPNKNENYYNHKFKDKATLTVDKSTNTAYMELSSLRSEDTAVYYCTREYYGRTYYSAMDYWGQGTTLTVSS VL: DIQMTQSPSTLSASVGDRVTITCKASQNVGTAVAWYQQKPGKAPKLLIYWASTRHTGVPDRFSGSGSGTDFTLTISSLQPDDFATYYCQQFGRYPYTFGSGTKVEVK ?
0.000133

Could you tell me which koff is on file for benralizumab analogue (antibody, V domains shown, VH of benralizumab, made by DNA synthesis; VL of benralizumab, made by DNA synthesis; Human IgG1, kappa; VH and VL identical to commercial benralizumab but with core fucose on the Fc N-glycan; also called benralizumab analogue (fucosylated human IgG1); source: HEK293F, transiently transfected, purified (Protein A)) VH: EVQLVQSGAEVKKPGASVKVSCKASGYTFTSYVIHWVRQRPGQGLAWMGYINPYNDGTKYNERFKGKVTITSDRSTSTVYMELSSLRSEDTAVYLCGREGIRYYGLLGDYWGQGTLVTVSS VL: DIQMTQSPSSLSASVGDRVTITCGTSEDIINYLNWYQQKPGKAPKLLIYHTSRLQSGVPSRFSGSGSGTDFTLTISSLQPEDFATYYCQQGYTLPYTFGQGTKVEIK ?
0.0011

Could you tell me which koff is on file for 5R68 (antibody, V domains shown, Human IgG1, kappa; selected as scFab by yeast display from the hu2B7 VH-CDR2 library; source: HEK293F, purified (Protein A)) VH: QVQLVQSGAEVKKPGSSVKVSCKASGYTFTSYWINWVRQAPGQGLEWIGHIYPTATIAVYNDKFKDKATLTVDKSTNTAYMELSSLRSEDTAVYYCTRDYYGRSYYYAMDYWGQGTTLTVSS VL: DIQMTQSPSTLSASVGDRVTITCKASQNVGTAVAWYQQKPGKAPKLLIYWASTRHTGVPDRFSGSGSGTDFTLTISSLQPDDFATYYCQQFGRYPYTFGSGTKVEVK ?
0.000566

Next, consider the following binder.
Could you tell me which koff is on file for 5R65.14 (antibody, V domains shown, as the VH of m6 (5R65) with mutations in VH-CDR3 (Kabat residues 95–100d were randomised); no mutations in VL-CDR3; Human IgG1, kappa; selected as scFab by yeast display from the 5R65 CDR3 library under kinetic screening; source: HEK293F, purified (Protein A)) VH: QVQLVQSGAEVKKPGSSVKVSCKASGYTFTSYWINWVRQAPGQGLEWIGHIYPNKNENYYNHKFKDKATLTVDKSTNTAYMELSSLRSEDTAVYYCTREHYGRPYYNAMDYWGQGTTLTVSS VL: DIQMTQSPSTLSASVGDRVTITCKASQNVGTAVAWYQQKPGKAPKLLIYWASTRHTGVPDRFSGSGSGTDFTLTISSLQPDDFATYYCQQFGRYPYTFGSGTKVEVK ?
0.000199
